Kindly supply the reported pKi values for the records listed here.
# measured_on: rat A2B receptors (rA2B) (Rattus norvegicus)
# Sequence (P29276 1-332): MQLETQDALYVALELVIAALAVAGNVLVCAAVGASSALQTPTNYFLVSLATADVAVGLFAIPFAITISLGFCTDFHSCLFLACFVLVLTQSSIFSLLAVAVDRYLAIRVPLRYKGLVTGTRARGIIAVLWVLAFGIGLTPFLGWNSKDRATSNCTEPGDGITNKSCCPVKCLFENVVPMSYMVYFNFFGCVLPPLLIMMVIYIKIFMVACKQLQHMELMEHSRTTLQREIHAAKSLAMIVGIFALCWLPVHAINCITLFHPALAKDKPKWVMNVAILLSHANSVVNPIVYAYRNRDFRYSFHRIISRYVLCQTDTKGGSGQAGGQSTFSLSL
pKi: −log10 of the molar value.

Some solved cases for reference:
{"smiles_repr": "CCn1c(=O)c2[nH]c(-c3ccc(NCc4cccnc4)nc3)nc2n(CC)c1=O", "pKi": "> 7.00"}
{"smiles_repr": "CCCn1c(=O)c2[nH]c(-c3ccc(N4CCNCC4)nc3)nc2n(CCC)c1=O", "pKi": "> 6.30"}
{"smiles_repr": "CCCn1c(=O)c2[nH]c(-c3ccc(NC4CCCC4)nc3)nc2n(CCC)c1=O", "pKi": "> 5.30"}
{"smiles_repr": "CCCn1c(=O)c2[nH]c(-c3ccc(N4CCCN(C)CC4)nc3)nc2n(CCC)c1=O", "pKi": "> 7.00"}

Fill in pKi for each of the 3 compounds listed.
1. CCCn1c(=O)c2[nH]c(-c3ccc(N(C)C(=O)c4ccc(C(F)(F)F)nc4)nc3)nc2n(CCC)c1=O
2. CNc1ccc(-c2nc3c([nH]2)c(=O)n(C)c(=O)n3C)cn1
3. CCCn1c(=O)c2[nH]c(-c3ccc(N4CCCNCC4)nc3)nc2n(CCC)c1=O

1: > 7.00; 2: > 6.30; 3: > 7.00

Data request, read-out pKi, for "CCCn1c(=O)c2[nH]c(-c3ccc(N4CCCC4)nc3)nc2n(CCC)c1=O" > 6.30
